- Subject Of Test: human recombinant 6His-Nterm SHP2 full-length (Thr2-Arg593) (Homo sapiens, UniProt Q06124)
- Construct: 6His-Nterm SHP2 full-length (Thr2-Arg593, R&D system); 6His (N)
- Test Method Notes: SHP2 Phosphatase Assay (DiFMUP fluorescence)
- Settings: SHP2 0.2 nM pre-incubated with 100 nM bi-phosphorylated activating peptide; compound 1000-0.05 nM, 30 min pre-incubation; DiFMUP 20 µM, 45 min, room temperature; 10-concentration dose-response
Structures can show the parent of a compound that is named as a salt.
Result Type: pIC50
Value format note: pIC50 is -log10 of concentration (mol/L); just state the number.

{"columns": ["Molecule", "pIC50"],
 "data": [
  ["COc1ccc(-c2c(C)nc(N3CCC4(CC3)Cc3ncccc3[C@H]4N)c3ccnn23)c(F)c1 [Compound 185]", 8.15],
  ["Cc1nc(N2CCC3(CC2)Cc2ncccc2[C@H]3N)c2ccnn2c1-c1ccc2c(c1)CCCO2 [Compound 167]", 8.05]
]}

Now for the molecule whose pIC50 we want.
So what pIC50 did N[C@@H]1c2cccnc2CC12CCN(c1ncc(-c3cccc(F)c3Cl)n3nccc13)CC2 [Compound 87, hydrochloride] get with human recombinant 6His-Nterm SHP2 full-length (Thr2-Arg593) (Homo sapiens, UniProt Q06124)?
7.66

====

- Subject Of Test: human recombinant 6His-Nterm SHP2 full-length (Thr2-Arg593) (Homo sapiens, UniProt Q06124)
- Construct: 6His-Nterm SHP2 full-length (Thr2-Arg593, R&D system); 6His (N)
- Sequence (Q06124 2-593): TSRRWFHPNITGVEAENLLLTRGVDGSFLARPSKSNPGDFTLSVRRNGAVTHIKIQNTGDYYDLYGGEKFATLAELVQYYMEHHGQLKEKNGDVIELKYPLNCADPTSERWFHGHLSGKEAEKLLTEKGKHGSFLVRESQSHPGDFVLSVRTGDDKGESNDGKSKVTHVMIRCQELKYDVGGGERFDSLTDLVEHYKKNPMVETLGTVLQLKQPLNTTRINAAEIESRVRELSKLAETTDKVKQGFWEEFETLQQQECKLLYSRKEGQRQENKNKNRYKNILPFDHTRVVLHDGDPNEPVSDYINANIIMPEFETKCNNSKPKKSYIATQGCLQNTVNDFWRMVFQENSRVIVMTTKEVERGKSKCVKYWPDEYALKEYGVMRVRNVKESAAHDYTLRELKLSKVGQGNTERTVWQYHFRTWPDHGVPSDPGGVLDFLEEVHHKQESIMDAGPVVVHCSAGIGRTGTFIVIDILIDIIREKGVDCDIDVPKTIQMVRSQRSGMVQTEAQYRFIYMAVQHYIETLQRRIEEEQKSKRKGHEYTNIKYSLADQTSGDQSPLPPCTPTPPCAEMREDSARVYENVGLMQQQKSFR
- Test Method Notes: SHP2 Phosphatase Assay (DiFMUP fluorescence)
- Settings: SHP2 0.2 nM pre-incubated with 100 nM bi-phosphorylated activating peptide; compound 1000-0.05 nM, 30 min pre-incubation; DiFMUP 20 µM, 45 min, room temperature; 10-concentration dose-response
Structures can show the parent of a compound that is named as a salt.
Result Type: pIC50
Answer as the number alone; pIC50 is minus log10 of concentration in mol/L.

Record excerpt, results attached:
{"columns": ["Molecule", "Result Type", "Test Value"],
 "data": [
  ["Cc1nc(N2CCC3(CC2)Cc2ncc(C#N)cc2[C@H]3N)c2ccnn2c1-c1ccccc1F", "pIC50", 7.68],
  ["Cc1nc(N2CCC3(CC2)Cc2ncccc2[C@H]3N)c2ccnn2c1-c1ccc2ccn(C)c2c1", "pIC50", 7.96],
  ["Cc1nc(N2CCC3(CC2)Cc2c(F)cccc2[C@H]3N)c2ccnn2c1-c1cnc(C)n1C [Compound 97, hydrochloride]", "pIC50", 7.38],
  ["Cc1nccc(-c2c(C)nc(N3CCC4(CC3)Cc3scnc3[C@H]4N)c3ccnn23)c1Cl [Compound 69, hydrochloride]", "pIC50", 8.00],
  ["Cc1c(-c2cnc(N3CCC4(CC3)Cc3ncccc3[C@H]4N)c3ccnn23)cnn1C [Compound 88, hydrochloride]", "pIC50", 6.46],
  ["Cc1cnc2c(c1)[C@@H](N)C1(CCN(c3nc(C)c(-c4ccccc4F)n4nccc34)CC1)C2", "pIC50", 8.22]
]}

What measured pIC50 is associated with Cc1cnccc1-c1c(C)nc(N2CCC3(CC2)Cc2ncccc2[C@H]3N)c2ccnn12 [Compound 98, formate] on human recombinant 6His-Nterm SHP2 full-length (Thr2-Arg593) (Homo sapiens, UniProt Q06124)?
6.84

Could you share what pIC50 was measured for COc1cccc(-c2c(C)nc(N3CCC4(CC3)Cc3ncccc3[C@H]4N)c3ccnn23)c1Cl [Compound 3, hydrochloride] , tested on human recombinant 6His-Nterm SHP2 full-length (Thr2-Arg593) (Homo sapiens, UniProt Q06124)?
8.52

Can you look up pIC50 on human recombinant 6His-Nterm SHP2 full-length (Thr2-Arg593) (Homo sapiens, UniProt Q06124) for "COc1c(F)cccc1-c1c(C)nc(N2CCC3(CC2)Cc2ncccc2[C@H]3N)c2ccnn12" ?
7.36

Lab note: need pIC50 with human recombinant 6His-Nterm SHP2 full-length (Thr2-Arg593) (Homo sapiens, UniProt Q06124) for entry N[C@@H]1c2cccnc2CC12CCN(c1ncc(-c3ccc(F)c4cc[nH]c34)n3nccc13)CC2 [Compound 89, hydrochloride] , please look it up.
8.05

Under human recombinant 6His-Nterm SHP2 full-length (Thr2-Arg593) (Homo sapiens, UniProt Q06124): pIC50 value of "COc1cccc2c1CC1(CCN(c3nc(C)c(-c4cnn(C)c4C)n4nccc34)CC1)[C@@H]2N" ?
7.80

Provide value of pIC50 for this record tested with human recombinant 6His-Nterm SHP2 full-length (Thr2-Arg593) (Homo sapiens, UniProt Q06124): "Cc1nc(N2CCC3(CC2)Cc2ccccc2[C@H]3N)c2ccnn2c1-c1cnoc1C"
6.85

Item "Cc1cc2c(cn1)[C@@H](N)C1(CCN(c3nc(C)c(-c4ccccc4F)n4nccc34)CC1)C2" with human recombinant 6His-Nterm SHP2 full-length (Thr2-Arg593) (Homo sapiens, UniProt Q06124) - pIC50?
8.15

API: value(readout=pIC50, system=human recombinant 6His-Nterm SHP2 full-length (Thr2-Arg593) (Homo sapiens, UniProt Q06124)) for record "COc1cccc2c1CC1(CCN(c3nc(C)c(-c4ccccc4F)n4nccc34)CC1)[C@@H]2N"
8.00

Item "Cc1nc(N2CCC3(CC2)Cc2ccccc2[C@H]3N)c2ccnn2c1-c1cnn(C)c1C" with human recombinant 6His-Nterm SHP2 full-length (Thr2-Arg593) (Homo sapiens, UniProt Q06124) - pIC50?
7.77

Notebook: pull reported pIC50 for human recombinant 6His-Nterm SHP2 full-length (Thr2-Arg593) (Homo sapiens, UniProt Q06124), entry Cc1nc(-c2c(C)nc(N3CCC4(CC3)Cc3ncccc3[C@H]4N)c3ccnn23)cs1 [Compound 158, hydrochloride]
7.33

Give recorded pIC50 with human recombinant 6His-Nterm SHP2 full-length (Thr2-Arg593) (Homo sapiens, UniProt Q06124) for the following molecule: "COc1ccc2c(n1)CC1(CCN(c3nc(C)c(-c4ccccc4F)n4nccc34)CC1)[C@@H]2N"
7.77

Item "Cc1nc(N2CCC3(CC2)Cc2ncccc2[C@H]3N)c2ccnn2c1-c1ccc(F)cc1F" with human recombinant 6His-Nterm SHP2 full-length (Thr2-Arg593) (Homo sapiens, UniProt Q06124) - pIC50?
8.52

Find pIC50 (human recombinant 6His-Nterm SHP2 full-length (Thr2-Arg593) (Homo sapiens, UniProt Q06124)) for the entry "Cc1nc(N2CCC3(CC2)Cc2ncccc2[C@H]3N)c2ccnn2c1-c1ccccc1F"
8.30
